Attribution: ChEMBL document CHEMBL1122939

These records show Ki for Adenosine A2 receptor (Rattus norvegicus, UniProt P29276+P30543).
# unit: nM | format: bare number

Some compounds with recorded Ki:
- compound: "OC[C@H]1O[C@@H](n2cnc3c(NC4CCCCCC4)ncnc32)[C@H](O)[C@@H]1O"
  Ki / nM: 1690
- compound: "OC[C@H]1O[C@@H](n2cnc3c(NC4CCC4)ncnc32)[C@H](O)[C@@H]1O"
  Ki / nM: 263

Reported Ki for OC[C@H]1OC(n2cnc3c(NC4CCCCCCCCCCC4)ncnc32)[C@H](O)[C@@H]1O (stereo partly drawn) : what is it?
47700

Reported Ki for OC[C@H]1OC(n2cnc3c(NC4CCCCCCCCC4)ncnc32)[C@H](O)[C@@H]1O (stereo partly drawn) : what is it?
5190

Reported Ki for Cn1c(=O)[nH]c2c(ncn2C2O[C@H](CO)[C@@H](O)[C@H]2O)c1=N (stereo partly drawn) : what is it?
3250

Reported Ki for OC[C@H]1O[C@@H](n2cnc3c(NC4CC4)ncnc32)[C@H](O)[C@@H]1O : what is it?
1240

Reported Ki for OC[C@H]1O[C@@H](n2cnc3c(NC4CCCCCCC4)ncnc32)[C@H](O)[C@@H]1O : what is it?
2450

Reported Ki for OC[C@H]1O[C@@H](n2cnc3c(NC4CCCC4)ncnc32)[C@H](O)[C@@H]1O : what is it?
462

----------
compounds and their reported Log k
- test_name: Lipophilicity value was evaluated
- Format: physicochemical
- experimental_conditions: octanol/water
Please state the value as a number alone, without comment.

Some compounds with recorded Log k:
- compound: "OC[C@H]1O[C@@H](n2cnc3c(NC4CC4)ncnc32)[C@H](O)[C@@H]1O"
  numeric_value: 0.53
- compound: "OC[C@H]1O[C@@H](n2cnc3c(NC4CCCCC4)ncnc32)[C@H](O)[C@@H]1O"
  numeric_value: 1.6
- compound: "OC[C@H]1OC(n2cnc3c(NC4CCCCCCCCCCC4)ncnc32)[C@H](O)[C@@H]1O (stereo partly drawn)"
  numeric_value: 4.52
- compound: "OC[C@H]1OC(n2cnc3c(NC4CCCCCCCCC4)ncnc32)[C@H](O)[C@@H]1O (stereo partly drawn)"
  numeric_value: 3.62
- compound: "OC[C@H]1O[C@@H](n2cnc3c(NC4CCCCCC4)ncnc32)[C@H](O)[C@@H]1O"
  numeric_value: 2.4
- compound: "OC[C@H]1O[C@@H](n2cnc3c(NC4CCCC4)ncnc32)[C@H](O)[C@@H]1O"
  numeric_value: 1.56

Reported Log k for OC[C@H]1O[C@@H](n2cnc3c(NC4CCC4)ncnc32)[C@H](O)[C@@H]1O : what is it?
1.22

Reported Log k for OC[C@H]1O[C@@H](n2cnc3c(NC4CCCCCCC4)ncnc32)[C@H](O)[C@@H]1O : what is it?
2.9
